Provide the reported EC50 of each item.
target: Melanocyte-stimulating hormone receptor (Mus musculus, UniProt Q01727); test: Agonist activity at mouse melanocortin receptor 1 expressed in HEK293 cells assessed as increase in cAMP accumulation after 2 hrs by AlphaScreen assay
Sequence (Q01727 whole entry): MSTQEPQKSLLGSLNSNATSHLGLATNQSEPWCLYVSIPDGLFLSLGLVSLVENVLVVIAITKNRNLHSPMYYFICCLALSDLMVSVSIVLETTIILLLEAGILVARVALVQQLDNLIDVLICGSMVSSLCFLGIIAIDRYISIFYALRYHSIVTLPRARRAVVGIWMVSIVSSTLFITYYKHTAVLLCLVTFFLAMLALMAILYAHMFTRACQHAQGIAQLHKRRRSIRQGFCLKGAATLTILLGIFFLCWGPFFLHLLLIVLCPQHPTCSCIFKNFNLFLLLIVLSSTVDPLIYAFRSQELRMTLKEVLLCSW
Non-standard residues stand in square brackets, D forms with d. Residues, ends and D or L forms follow the SMILES beside them.

[[record]]
compound = "C[C@@H]1NC(=O)[C@H]([C@@H](C)O)NC(=O)[C@H](Cc2ccccc2)NC(=O)[C@H](Cc2ccccc2)NC(=O)[C@H](CCCNC(=N)N)NC(=O)[C@@H]2CCCN2C(=O)[C@H]2CCCN2C(=O)[C@H](Cc2ccccc2)NC1=O (cyclo(RFFTAF[dP]P))"
result = "> 100 µM"

[[record]]
compound = "C[C@@H]1NC(=O)[C@H](CO)NC(=O)[C@H](Cc2ccccc2)NC(=O)[C@H](Cc2ccccc2)NC(=O)[C@H](CCCNC(=N)N)NC(=O)[C@@H]2CCCN2C(=O)[C@H]2CCCN2C(=O)[C@H](Cc2ccccc2)NC1=O"
result = "> 100 µM"


Could you now consider this next compound?
So for N=C(N)NCCC[C@@H]1NC(=O)[C@@H]2CCCN2C(=O)[C@H]2CCCN2C(=O)[C@H](Cc2ccccc2)NC(=O)[C@H](CO)NC(=O)[C@H](CC(N)=O)NC(=O)[C@H](Cc2ccccc2)NC(=O)[C@H](Cc2ccccc2)NC1=O (cyclo(RFFNSF[dP]P)) , the logged EC50 turned out to be > 100 µM
